B1: SLC35F2 (parent)
chain: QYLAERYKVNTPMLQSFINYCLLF

- Variants of: B1
- testDetails: protein stability index of a GFP-peptide fusion (GPS, HEK-293T) (PSI 1-6); higher = more stable;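 note: lentivirally expressed fusions sorted by FACS into six bins by GFP to DsRed ratio, PSI derived from sequencing read proportions per bin multiplied by bin number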
- conditionParameters: c terminus: a fixed tail appended
I would appreciate it if you labelled entries T when protein stability index is 3 or higher, otherwise F.

seqText: QYLAERYKVNTPMLASFINYCLLF [Q15A]
labelValue: F

seqText: QYLAEYYKVNTPMLQSFINYCLLF [R6Y]
labelValue: F

In: In plain terms: is recorded protein stability index at least 3 for QYLAERYKVNTPMLQSFINYCALF [L22A] ?
Out: F

In: Okay, and QYLAERYKVNTPMLQSFINYCTLF [L22T] ?
Out: F

In: Okay, and QYLAERYKVNTPMLQSFINYCRLF [L22R] ?
Out: F

In: Okay, and QYLAERYKVNTPMLQSCINYCLLF [F17C] ?
Out: T

In: Okay, and QYLSERYKVNTPMLQSFINYCLLF [A4S] ?
Out: T

In: Okay, and QYLAERYKVNTYMLQSFINYCLLF [P12Y] ?
Out: T

In: Okay, and QYLAERYKVNTPMLQSFINFCLLF [Y20F] ?
Out: T
